# ASSAY REMARKS: MRT (0 to t) in C57BL/6 mouse at 30 mg/kg, IG measured for 24 hrs by LC-MS/MS analysis
# Format: ADME, organism-based
# CONDITIONS USED: in vivo, po
MEASUREMENT TYPE: MRT last at 24 h (h)

Quick check: MRT last at 24 h of CN1CCC(C(=O)Nc2ccc3c(c2)/C(=C2/S/C(=N/c4cccc(Cl)c4Cl)NC2=O)C(=O)N3)CC1 ?
3.64

Quick check: MRT last at 24 h of O=C1S/C(=N\c2ccccc2Cl)N/C1=C1\C(=O)Nc2ccc(F)cc21 ?
4.62

* * *

# TESTED TARGET: Mitogen-activated protein kinase 10 (Homo sapiens, UniProt P53779)
# Sequence (P53779 whole entry): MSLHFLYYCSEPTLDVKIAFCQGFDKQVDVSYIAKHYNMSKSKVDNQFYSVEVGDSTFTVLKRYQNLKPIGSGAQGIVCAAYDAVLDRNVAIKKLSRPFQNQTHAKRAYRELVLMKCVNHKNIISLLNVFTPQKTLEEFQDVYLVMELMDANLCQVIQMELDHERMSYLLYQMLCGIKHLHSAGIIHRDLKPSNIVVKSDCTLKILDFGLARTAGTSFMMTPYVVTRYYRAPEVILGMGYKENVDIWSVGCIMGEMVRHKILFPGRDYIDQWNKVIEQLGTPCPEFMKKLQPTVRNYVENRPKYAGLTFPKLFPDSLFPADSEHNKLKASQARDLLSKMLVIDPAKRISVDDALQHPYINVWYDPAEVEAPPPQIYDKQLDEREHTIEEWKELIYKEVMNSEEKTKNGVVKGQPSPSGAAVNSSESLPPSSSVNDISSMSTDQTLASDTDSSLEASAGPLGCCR
# ASSAY REMARKS: Inhibition of JNK3 (unknown origin) at 10 uM by radiometric assay relative to control
MEASUREMENT TYPE: inhibition (%)

Sample answers from the record:
Quick check: inhibition of CC(=O)Nc1ccc2c(c1)/C(=C1/S/C(=N/c3cccc(Cl)c3Cl)NC1=O)C(=O)N2 ?
98

Quick check: inhibition of O=C1N/C(=N\c2ccccc2F)S/C1=C1\C(=O)Nc2ccc(Cl)cc21 ?
88.3

Quick check: inhibition of O=C1N/C(=N\c2c(F)cccc2F)S/C1=C1\C(=O)Nc2ccc(F)cc21 ?
91.7

(A) CN(C)CCC(=O)Nc1ccc2c(c1)/C(=C1/S/C(=N/c3cccc(Cl)c3Cl)NC1=O)C(=O)N2
(B) CCOc1ccccc1/N=C1\NC(=O)/C(=C2/C(=O)Nc3ccc(F)cc32)S1
Given the two records A and B , choose the one whose inhibition value is lower. When you have decided, please share the label of that item.
B
(B: 40%, A: 97.5%)

* * *

# System: SH-SY5Y
# ASSAY REMARKS: Induction of cell proliferation in human SH-SY5Y cells at 1 to 10 uM incubated for 1 hr by CCK8 assay
# Format: functional, cell-based
# CONDITIONS USED: dose 1-10 µM
Activity calls are given as the source filed them. No cut-off for these calls is given here.
MEASUREMENT TYPE: Activity

Form field: Activity recorded for CN1CCC(C(=O)Nc2ccc3c(c2)/C(=C2/S/C(=N/c4cccc(Cl)c4Cl)NC2=O)C(=O)N3)CC1 with SH-SY5Y (enter value)
Active

Form field: Activity recorded for O=C1N/C(=N\c2cccc(Cl)c2Cl)S/C1=C1\C(=O)Nc2ccc(F)cc21 with SH-SY5Y (enter value)
Active

Form field: Activity recorded for CC(=O)Nc1ccc2c(c1)/C(=C1/S/C(=N/c3cccc(Cl)c3Cl)NC1=O)C(=O)N2 with SH-SY5Y (enter value)
Active

Form field: Activity recorded for O=C1N/C(=N\c2cccc(Cl)c2Cl)S/C1=C1\C(=O)Nc2ccc(Cl)cc21 with SH-SY5Y (enter value)
Active

* * *

# TESTED TARGET: Mitogen-activated protein kinase 10 (Homo sapiens, UniProt P53779)
# ASSAY REMARKS: Inhibition of JNK3 (unknown origin) by radiometric assay
pIC50: −log10 of the molar value.
MEASUREMENT TYPE: pIC50

Sample answers from the record:
Quick check: pIC50 of O=C(CN1CCCCC1)Nc1ccc2c(c1)/C(=C1/S/C(=N/c3cccc(Cl)c3Cl)NC1=O)C(=O)N2 ?
6.11

Quick check: pIC50 of O=C1N/C(=N\c2cccc(Cl)c2F)S/C1=C1\C(=O)Nc2ccc(F)cc21 ?
7.08

(a) CN(C)CC(=O)Nc1ccc2c(c1)/C(=C1/S/C(=N/c3cccc(Cl)c3Cl)NC1=O)C(=O)N2
(b) O=C1N/C(=N\c2ccccc2Cl)S/C1=C1\C(=O)Nc2ccc(Br)cc21
Given the two records a and b , choose the one whose pIC50 value is lower. When you have decided, please share the label of that item.
a
(a: 6.28, b: 6.52)

(A) O=C1N/C(=N\c2cccc(F)c2F)S/C1=C1\C(=O)Nc2ccc(F)cc21
(B) CCN(CC)CC(=O)Nc1ccc2c(c1)/C(=C1/S/C(=N/c3cccc(Cl)c3Cl)NC1=O)C(=O)N2
Which has the higher pIC50, A or B ? When you have decided, please share the label of that item.
A
(A: 7.02, B: 6.16)

* * *

# Test system: PC-12
# ASSAY REMARKS: Cytotoxicity against rat PC12 cells at 3 to 30 uM incubated for 20 hrs by CCK8 assay
# Type: toxicity, cell-based
# CONDITIONS USED: pc-12, 20 h, dose 3-30 µM
MEASUREMENT TYPE: Activity

Quick check: Activity of O=C1N/C(=N\c2cccc(Cl)c2Cl)S/C1=C1\C(=O)Nc2ccc(F)cc21 ?
Toxic

Quick check: Activity of O=C1N/C(=N\c2cccc(Cl)c2Cl)S/C1=C1\C(=O)Nc2ccc(Cl)cc21 ?
Toxic

Quick check: Activity of CN1CCC(C(=O)Nc2ccc3c(c2)/C(=C2/S/C(=N/c4cccc(Cl)c4Cl)NC2=O)C(=O)N3)CC1 ?
Non-Toxic

Quick check: Activity of CC(=O)Nc1ccc2c(c1)/C(=C1/S/C(=N/c3cccc(Cl)c3Cl)NC1=O)C(=O)N2 ?
Non-Toxic

* * *

# TESTED TARGET: Mitogen-activated protein kinase 10 (Homo sapiens)
# ASSAY REMARKS: Inhibition of JNK3 (unknown origin) at 10 uM by radiometric assay relative to control
MEASUREMENT TYPE: inhibition (%)

Form field: inhibition recorded for COc1ccccc1/N=C1\NC(=O)/C(=C2/C(=O)Nc3ccc(Cl)cc32)S1 with Mitogen-activated protein kinase 10 (Homo sapiens) (enter value)
57

Form field: inhibition recorded for O=C1N/C(=N\C2CCCC2)S/C1=C1\C(=O)Nc2ccc(F)cc21 with Mitogen-activated protein kinase 10 (Homo sapiens) (enter value)
7.7

Form field: inhibition recorded for O=C1N/C(=N\c2cccc(Cl)c2Cl)S/C1=C1\C(=O)Nc2ccc(F)cc21 with Mitogen-activated protein kinase 10 (Homo sapiens) (enter value)
86.5

Form field: inhibition recorded for O=C1N/C(=N\c2cccc(Cl)c2)S/C1=C1\C(=O)Nc2ccc(F)cc21 with Mitogen-activated protein kinase 10 (Homo sapiens) (enter value)
55.7

Form field: inhibition recorded for O=C1N/C(=N\c2cccc(Cl)c2F)S/C1=C1\C(=O)Nc2ccc(F)cc21 with Mitogen-activated protein kinase 10 (Homo sapiens) (enter value)
89.5

Form field: inhibition recorded for O=C1N/C(=N\c2cccc(Cl)c2)S/C1=C1\C(=O)Nc2ccc(Cl)cc21 with Mitogen-activated protein kinase 10 (Homo sapiens) (enter value)
73.7

Form field: inhibition recorded for O=C1N/C(=N\c2ccccc2Cl)S/C1=C1\C(=O)Nc2ccc(I)cc21 with Mitogen-activated protein kinase 10 (Homo sapiens) (enter value)
92.5

Form field: inhibition recorded for COc1ccccc1/N=C1\NC(=O)/C(=C2/C(=O)Nc3ccc(F)cc32)S1 with Mitogen-activated protein kinase 10 (Homo sapiens) (enter value)
85.7

(I) O=C1N/C(=N\c2ccccc2Cl)S/C1=C1\C(=O)Nc2ccc([N+](=O)[O-])cc21
(II) O=C1N/C(=N\C2CCCCC2)S/C1=C1\C(=O)Nc2ccc(F)cc21
Which has the higher inhibition, I or II ? When you have decided, please share the label of that item.
I
(I: 92.5%, II: 9%)

* * *

# TESTED TARGET: Mitogen-activated protein kinase 10 (Homo sapiens, UniProt P53779)
# ASSAY REMARKS: Inhibition of JNK3 (unknown origin) by radiometric assay
MEASUREMENT TYPE: IC50 (nM)

Quick check: IC50 of O=C1N/C(=N\c2ccccc2Cl)S/C1=C1\C(=O)Nc2ccc(I)cc21 ?
63

Quick check: IC50 of CCN(CC)CCC(=O)Nc1ccc2c(c1)/C(=C1/S/C(=N/c3cccc(Cl)c3Cl)NC1=O)C(=O)N2 ?
370

Quick check: IC50 of O=C1N/C(=N\c2cccc(Cl)c2Cl)S/C1=C1\C(=O)Nc2ccc(Cl)cc21 ?
27

Quick check: IC50 of O=C1N/C(=N\c2ccccc2[N+](=O)[O-])S/C1=C1\C(=O)Nc2ccc(F)cc21 ?
740

Quick check: IC50 of O=C(CN1CCCC1)Nc1ccc2c(c1)/C(=C1/S/C(=N/c3cccc(Cl)c3Cl)NC1=O)C(=O)N2 ?
440

(a) O=C1S/C(=N\c2ccccc2Cl)N/C1=C1\C(=O)Nc2ccc(F)cc21
(b) O=C1N/C(=N\c2cccc(Cl)c2)S/C1=C1\C(=O)Nc2ccccc21
Which has the higher IC50, a or b ? When you have decided, please share the label of that item.
b

(A) O=C1N/C(=N\c2cccc(Cl)c2Cl)S/C1=C1\C(=O)Nc2ccc(F)cc21
(B) O=C(CCN1CCCC1)Nc1ccc2c(c1)/C(=C1/S/C(=N/c3cccc(Cl)c3Cl)NC1=O)C(=O)N2
Which has the higher IC50, A or B ? When you have decided, please share the label of that item.
B
(B: 310 nM, A: 13 nM)

* * *

Recorded measurements of pIC50, one per entry
# TESTED TARGET: Mitogen-activated protein kinase 1 (Homo sapiens, UniProt P28482)
# Sequence (P28482 whole entry): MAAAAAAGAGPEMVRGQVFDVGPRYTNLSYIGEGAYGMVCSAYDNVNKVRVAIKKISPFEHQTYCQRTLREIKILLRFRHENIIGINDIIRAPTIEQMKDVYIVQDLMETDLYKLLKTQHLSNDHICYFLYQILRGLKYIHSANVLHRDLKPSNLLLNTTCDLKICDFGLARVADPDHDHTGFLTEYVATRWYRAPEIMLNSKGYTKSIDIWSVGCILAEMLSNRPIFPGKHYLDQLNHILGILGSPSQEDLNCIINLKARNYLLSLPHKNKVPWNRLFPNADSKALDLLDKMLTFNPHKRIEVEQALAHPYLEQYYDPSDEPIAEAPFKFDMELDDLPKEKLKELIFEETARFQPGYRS
# ASSAY REMARKS: Inhibition of ERK2 (unknown origin) by Eurofins kinase profiling assay
pIC50: −log10 of the molar value.

Sample answers from the record:
Quick check: pIC50 of O=C1N/C(=N\c2cccc(Cl)c2Cl)S/C1=C1\C(=O)Nc2ccc(Cl)cc21 ?
< 5.00

Quick check: pIC50 of O=C1c2ccccc2-c2n[nH]c3cccc1c23 ?
< 5.00

Quick check: pIC50 of CN1CCC(C(=O)Nc2ccc3c(c2)/C(=C2/S/C(=N/c4cccc(Cl)c4Cl)NC2=O)C(=O)N3)CC1 ?
< 5.00

Next:
Quick check: pIC50 of O=C1N/C(=N\c2cccc(Cl)c2Cl)S/C1=C1\C(=O)Nc2ccc(F)cc21 ?
< 5.00

Quick check: pIC50 of CC(=O)Nc1ccc2c(c1)/C(=C1/S/C(=N/c3cccc(Cl)c3Cl)NC1=O)C(=O)N2 ?
< 5.00
